Target: T1, Recombinant Human FGFR2 alpha (IIIc) Fc Chimera Protein, CF (R&D systems, 712-FR-050) (human, UniProt P21802 22-377)
T1 construct: bought; not shown: Fc part of the chimera
T1 sequence (P21802 22-377, change not shown): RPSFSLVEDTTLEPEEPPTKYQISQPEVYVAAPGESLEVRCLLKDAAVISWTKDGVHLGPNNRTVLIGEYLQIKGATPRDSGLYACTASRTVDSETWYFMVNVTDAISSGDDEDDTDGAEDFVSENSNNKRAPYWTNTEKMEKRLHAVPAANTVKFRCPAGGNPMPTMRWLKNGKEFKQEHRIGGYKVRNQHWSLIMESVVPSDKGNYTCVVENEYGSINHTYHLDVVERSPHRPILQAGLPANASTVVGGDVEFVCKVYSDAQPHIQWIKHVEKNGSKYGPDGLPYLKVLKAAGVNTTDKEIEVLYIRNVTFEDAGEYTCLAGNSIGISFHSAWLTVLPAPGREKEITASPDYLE
Assay: ELISA on plate-bound FGFR2-Fc
Bridge positions count the residues as written; N and C are the ends. Ends that are not written are not given here. COCH2 = acetyl group that carries the bridge
// reported ELISA luminescence signal at 10 nmol/L peptide, relative to SEQ ID NO: 47 (=1) per item

Worked cases, ELISA luminescence signal at 10 nmol/L peptide, relative to SEQ ID NO: 47 (=1) given:
For reference, reported ELISA luminescence signal at 10 nmol/L peptide, relative to SEQ ID NO: 47 (=1) for YCEANYLDPEQYQYFIYFK(COCH2)Y (thioether 2-19 (inferred)) [cyclic peptide SEQ ID NO: 324] stands at ≥ 0.7 ratio

For reference, reported ELISA luminescence signal at 10 nmol/L peptide, relative to SEQ ID NO: 47 (=1) for QCYNYQYIYQYIYK(COCH2)I (thioether 2-14) [cyclic peptide SEQ ID NO: 373] stands at 0.1 to 0.5 ratio

For reference, reported ELISA luminescence signal at 10 nmol/L peptide, relative to SEQ ID NO: 47 (=1) for ECPQNFINPVQWRYFQHYK(COCH2)N (thioether 2-19 (inferred)) [cyclic peptide SEQ ID NO: 84] stands at ≥ 0.7 ratio

For reference, reported ELISA luminescence signal at 10 nmol/L peptide, relative to SEQ ID NO: 47 (=1) for YCEENYLDPEQYQYFIFFK(COCH2)Y (thioether 2-19 (inferred)) [cyclic peptide SEQ ID NO: 296] stands at ≥ 0.7 ratio

For reference, reported ELISA luminescence signal at 10 nmol/L peptide, relative to SEQ ID NO: 47 (=1) for RCHHNFHHARQWGFFHHYK(COCH2)R (thioether 2-19) [cyclic peptide SEQ ID NO: 386] stands at 0.5 to 0.7 ratio

Next item in the queue.
For reference, reported ELISA luminescence signal at 10 nmol/L peptide, relative to SEQ ID NO: 47 (=1) for YCEENYLDNEQYQYFIYFK(COCH2)Y (thioether 2-19 (inferred)) [cyclic peptide SEQ ID NO: 228] stands at ≥ 0.7 ratio
